Ref: a melting point compilation (Tetko et al.)

experimental-endpoint: melting point

Answered cases to consult:
compound	melting point
COC(=O)C1CCN(c2nccc3sccc23)CC1	83 to 85 °C
CC1(C(=O)O)CCOCC1	62 to 64 °C

// below: melting point requested for another compound
Name the recorded melting point for CC1CNC(=O)N(c2ccccc2)C1=O (centres undefined) .
174 to 176 °C

* * *

The entries below are paired with their reported melting point.

Answered cases to consult:
compound	melting point
Cc1cc(C(=O)O)ccc1I	218 to 220 °C
Clc1cnc(Cl)c(-c2ccccc2)n1	52 to 54 °C
NC(=O)Nc1ccc(CC(=O)O)cc1	179 to 182 °C

Name the recorded melting point for `COc1cccc2sc(NC(=O)OCC(F)(F)F)nc12` .
133 to 135 °C

Name the recorded melting point for CC(C)(C)C1CCCCC(=O)N1 (stereo not given) .
126 to 128 °C

Name the recorded melting point for `CC(C)(C)c1cc(=O)[nH]c(C(C)(C)C)n1` .
163 to 165 °C

Name the recorded melting point for `O=C(CCCl)N1CCN(c2ccc(F)cc2)CC1` .
99 to 101 °C

Name the recorded melting point for CC1CCN(Cc2ccccc2)c2ccccc2N1 (stereo not given) .
68 to 70 °C

* * *

The entries below are paired with their reported melting point.

Answered cases to consult:
compound	melting point
Nc1ccccc1C(=O)N1CCCC1	85 to 89 °C
O=C(O)c1ccc(-c2ncon2)cc1	214 to 216 °C
O=S(=O)(Cl)c1cccc(-c2nnco2)c1	87 to 89 °C
CC(=O)c1ccc(N2CCCS2(=O)=O)cc1	137 to 139 °C
O=C1Nc2c(I)cccc2C1=O	200 to 202 °C

Name the recorded melting point for `COc1cc(C(=O)NN)ccc1OCCC(C)C` .
88 to 90 °C

Name the recorded melting point for `NC(=O)CCNc1ccccc1[N+](=O)[O-]` .
136 to 138 °C

Name the recorded melting point for `Cc1nn(C)c(C)c1C(=O)C(=O)O` .
160 to 168 °C

Name the recorded melting point for `Cn1cccc1C(=O)NN` .
113 to 115 °C

Name the recorded melting point for `N#CC1(NC(=O)c2ccccc2)CCCCC1` .
135 to 137 °C

Name the recorded melting point for O=C(O)CC(n1cnc2sccc2c1=O)C(F)(F)F (stereo not drawn) .
188 to 190 °C

Name the recorded melting point for `Cc1cc(C)cc(-n2c(C)cc(C(=O)O)c2C)c1` .
169 to 171 °C

Name the recorded melting point for `O=C(O)Cc1coc2ccc3ccccc3c12` .
166 to 168 °C

Name the recorded melting point for `CNC(=Nc1ccnn1C(C)C)c1ccco1` .
233 to 235 °C

Name the recorded melting point for `O=C(CCCl)Nc1cc([N+](=O)[O-])ccc1F` .
84 to 86 °C

Name the recorded melting point for `Nc1nc(N)nc(CCl)n1` .
221 to 223 °C

Name the recorded melting point for `CC(C)c1nc(Cl)nc(N(C)C)n1` .
57 to 59 °C

Name the recorded melting point for `Cc1cccc(NC(=O)CSCC(=O)O)c1` .
200 to 206 °C

Name the recorded melting point for CC1CCCC1(N)C(N)=O (stereo not drawn) .
64 to 66 °C

Name the recorded melting point for `COC(=O)CCc1ccc(N)cc1` .
39 to 41 °C

Name the recorded melting point for `COC(=O)/C=C/c1ccc(OC)c(S(=O)(=O)Cl)c1` .
115 to 117 °C

Name the recorded melting point for `CCOC(=O)c1ccc2c(c1)nc(C)n2CC` .
70 to 72 °C

Name the recorded melting point for `Sc1nnc(-c2ccco2)n1C1CCCCC1` .
134 to 136 °C

* * *

The entries below are paired with their reported melting point.

molecule	value-reported
O=C(O)C1C2C3CCC(C3)C12 (stereo unspecified)	96 to 98 °C

Name the recorded melting point for NC(C(=O)O)c1ccc(Br)cc1 (stereo unspecified) .
249 to 251 °C

Name the recorded melting point for `CC(C)(C)CNC(=O)Nc1ccc(Cl)c(C(=O)O)c1` .
208 to 210 °C

Name the recorded melting point for `CN(c1ccc(CN)cc1)S(C)(=O)=O` .
46 to 48 °C

Name the recorded melting point for `COC(=O)c1cc(Cl)c(O)c(Cl)c1` .
117 to 121 °C

Name the recorded melting point for `COc1ccc(N)cc1-n1nnnc1C1CC1` .
161 to 163 °C

Name the recorded melting point for Cc1ccccc1-n1c(S)nc2sc3c(c2c1=O)CCC(C)C3 (stereo unspecified) .
230 to 232 °C

Name the recorded melting point for `CNCC(=O)Nc1ccc(Cl)cc1` .
58 to 60 °C

Name the recorded melting point for `Fc1ccc2c(c1)NCCC2` .
46 to 48 °C

Name the recorded melting point for `O=C(O)c1cc(-c2ccc(Cl)cc2)nc2ccccc12` .
244 to 246 °C

Name the recorded melting point for `O=[N+]([O-])c1cnccc1S` .
109 to 111 °C

Name the recorded melting point for `Cc1ccccc1CNC(=O)CCl` .
105 to 107 °C

Name the recorded melting point for `NC(=O)CNC(=O)c1ccc(N)cc1` .
216 to 218 °C

Name the recorded melting point for `O=C(O)c1nc[nH]n1` .
132 to 136 °C

Name the recorded melting point for `O=C(O)Cc1csc(-c2ccc(Br)s2)n1` .
142 to 144 °C

Name the recorded melting point for COCC(=O)NC(C)C(=O)O (stereo unspecified) .
108 to 110 °C

* * *

The entries below are paired with their reported melting point.

Answered cases to consult:
molecule	melting point
O=C(Nc1ccccc1)Nc1ccc(C(=O)O)cc1	260 to 262 °C
NCc1ccc(OCc2ccccc2)cc1	51 to 53 °C
O=C1OCCN1c1ccc([N+](=O)[O-])cc1	154 to 156 °C

Name the recorded melting point for `CCCOc1ccc(C#N)cc1OC` .
90 to 92 °C

Name the recorded melting point for `COc1ccc(N2C(=O)C=CC2=O)cn1` .
122 to 124 °C

Name the recorded melting point for `O=C(O)CS(=O)(=O)c1ccc(Cl)cc1` .
122 to 124 °C

Name the recorded melting point for `Cc1n[nH]c(C(N)=O)n1` .
222 to 224 °C

Name the recorded melting point for `CC(=O)CC(=O)Nc1ccc(C(C)C)cc1` .
68 to 70 °C

Name the recorded melting point for `O=S(=O)(CCN1CCC(O)CC1)c1ccc(Br)cc1` .
117 to 119 °C

Name the recorded melting point for `COC(=O)c1ccc(C(=O)c2cc[nH]c2)cc1` .
159 to 161 °C

Name the recorded melting point for `NNC(=O)Cn1ccc(C(F)(F)F)n1` .
157 to 159 °C

Name the recorded melting point for `Cc1nccn1Cc1ccc(N)cc1` .
159 to 161 °C

Name the recorded melting point for `Cc1ccc(NS(=O)(=O)c2cc([N+](=O)[O-])ccc2NN)c(C)c1` .
165 to 167 °C

Name the recorded melting point for `Cc1cc(-c2nc3cc(F)ccc3n2C)ccc1N` .
174 to 176 °C

Name the recorded melting point for `Cc1n[nH]c(-c2ccccc2N)n1` .
153 to 155 °C

Name the recorded melting point for NC(CN1CCCC1=O)c1cccc(C(F)(F)F)c1 (configuration not stated) .
76 to 78 °C

Name the recorded melting point for `CCn1ccnc(N)c1=O` .
119 to 121 °C

* * *

The entries below are paired with their reported melting point.

Answered cases to consult:
compound	value-reported
Cc1cc(Cl)c([N+](=O)[O-])cc1N	118 to 120 °C
Cn1ncc2c(N3CCNCC3)ncnc21	64 to 66 °C
O=C(CCl)Nc1ccc(Cl)cn1	142 to 144 °C
O=C(O)c1ncccc1OCC(F)(F)F	116 to 118 °C

Name the recorded melting point for `O=C(O)COc1ccc(C2SCCCS2)cc1` .
201 to 203 °C

Name the recorded melting point for `NNc1ccc2cccc(O)c2n1` .
156 to 158 °C

Name the recorded melting point for `O=C(Nc1ccsc1C(=O)O)c1ccc(Br)cc1` .
240 to 242 °C

Name the recorded melting point for `Cc1cccc2c1C(=O)NCCN2` .
182 to 184 °C

Name the recorded melting point for `c1c[nH]c(C2CCNCC2)n1` .
176 to 178 °C

Name the recorded melting point for `Cn1c(S)nnc1C1CC1` .
180 to 182 °C

* * *

The entries below are paired with their reported melting point.

Answered cases to consult:
compound	melting point
Cc1nn2c(C=O)c(C(C)C)nc2s1	40 to 42 °C
Cc1nc(-c2ccc(F)cc2)cs1	74 to 76 °C
Cc1ccccc1C1CC1C(=O)O (configuration not stated)	64 to 66 °C
O=C(O)c1ccc2c(=O)[nH]c(S)nc2c1	379 to 381 °C
O=C(O)C1CC(=O)N(c2ccc(Cl)c(F)c2)C1 (configuration not stated)	149 to 151 °C
CON(C)S(=O)(=O)c1ccc(N)cc1	148 to 150 °C
NC1CCCc2nc(-c3ccc(F)cc3)sc21 (configuration not stated)	54 to 56 °C
Oc1cc(C2CC2)ncn1	188 to 190 °C

// below: melting point requested for another compound
Name the recorded melting point for `O=C(O)Cn1ccc(=O)[nH]c1=O` .
279 to 281 °C
